experiment: ATG_PXRE_CIS: Attagene CIS-FACTORIAL HepG2 Assay for human Pregnane X Receptor Element (PXRE) (AID 2282957); conditions: HepG2 Attagene CIS-FACTORIAL PXRE reporter, mRNA; actives raise or lower the signal
Activity calls are given as the source filed them. How the source made its calls: active means hit-call score of the fitted dose curve at least 0.9, where 1 is the maximum; inactive means score below 0.9.
Hello, when you answer, please use one of the following outcomes: active, inactive

>>> df
                                   compound  answer_label
0  CCCCC(CC)COC(=O)c1ccc(N(C)C)cc1 (stereo not given)        active

Assay result, entry OCC(O)CC(F)(F)C(F)(F)C(F)(F)C(F)(F)C(F)(F)C(F)(F)C(F)(F)C(F)(F)F (stereo not given) — outcome?
inactive

Assay result, entry FC(F)(F)C(F)(F)C(F)(F)CC1CO1 (stereo not given) — outcome?
inactive

# credit: PubChem BioAssay (EPA / NIEHS)
